measurement.target: soluble TPO-R (UniProt P40238)
Sequence (P40238 26-491): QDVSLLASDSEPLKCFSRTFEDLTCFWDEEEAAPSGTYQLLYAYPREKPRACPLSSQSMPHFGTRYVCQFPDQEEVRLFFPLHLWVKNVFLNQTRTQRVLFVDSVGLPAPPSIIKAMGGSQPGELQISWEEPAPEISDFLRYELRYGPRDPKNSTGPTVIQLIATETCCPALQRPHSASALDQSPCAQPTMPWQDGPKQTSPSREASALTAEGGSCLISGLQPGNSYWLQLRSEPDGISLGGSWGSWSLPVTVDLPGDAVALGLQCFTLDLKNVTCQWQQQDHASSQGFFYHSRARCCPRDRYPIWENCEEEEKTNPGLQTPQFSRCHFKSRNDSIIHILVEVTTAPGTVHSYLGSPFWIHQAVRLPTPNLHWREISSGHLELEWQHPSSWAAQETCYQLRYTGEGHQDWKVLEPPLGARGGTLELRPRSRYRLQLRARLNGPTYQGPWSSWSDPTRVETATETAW
experiment: competition ELISA vs MBP-TPO156
*1 amine or outer side, *2 acyl side, *3 side chain or, on linkers, in order; H or OH if unused. Bridges are numbered along the chain shown (N, C = ends). Where no end group is shown, it is not given here. [ ]: non-standard residue; d: D form. NMeSer(Bzl) = N-methyl-O-benzyl-serine, CN([C@@H](COCc1ccccc1)C(=O)[*:2])[*:1]; Phe(4-NO2) = N[C@@H](Cc1ccc([N+](=O)[O-])cc1)C(=O)O; Ser(Bzl) = O=C([C@H](COCc1ccccc1)N[*:1])[*:2]; hPhe = N[C@@H](CCc1ccccc1)C(=O)O; Phg = N[C@H](C(=O)O)c1ccccc1; NMeA = CN[C@@H](C)C(=O)O; Nva = CCC[C@H](N)C(=O)O
quantity.name: IC50

[in] Report measured IC50; entry is CADGPTLREWI[Nva]FC (disulfide 1-14 (inferred); not fully specified) [SEQ ID NO:12 cyclized, S - Nva]
[out] < 500 nM

[in] Tell me its IC50 given ADGPTLREWISFC (also: further groups not given here) [[drawing CHEM-US-00036] (SEQ ID NO:173)(SEQ ID NO:173)] as the entry.
[out] < 500 nM

[in] Identify the reported IC50 for the following entry. CADGPTLREWIS[hPhe]C (disulfide 1-14 (inferred); not fully specified) [SEQ ID NO:12 cyclized, F - Homo-Phe]
[out] < 500 nM

[in] Provide one value: measured IC50 of CADGPTLREWIS[Ser(Bzl)]C (disulfide 1-14 (inferred); not fully specified) [SEQ ID NO:12 cyclized, F - (Ser(Bzl))]
[out] < 500 nM

[in] Please list IC50 recorded for the binder TLREWISFC (also: further groups not given here) [[drawing CHEM-US-00042] (SEQ ID NO:192)(SEQ ID NO:192)]
[out] 200000 nM

[in] Kindly indicate its recorded IC50. Item: TLREWISFC (also: further groups not given here) [[drawing CHEM-US-00043] (SEQ ID NO:192)(SEQ ID NO:192)]
[out] 200000 nM

[in] Answer with the recorded IC50 of CADGPTLREWI[NMeSer(Bzl)]FC (disulfide 1-14 (inferred); not fully specified) [SEQ ID NO:12 cyclized, S - [N-Me-Ser(Bzl)]] only.
[out] < 200000 nM

[in] Please look at this binder and report its IC50: CADGPTLREWI[NMeA]FC (disulfide 1-14 (inferred); not fully specified) [SEQ ID NO:12 cyclized, S - (N-Me-Ala)]
[out] < 200000 nM

[in] Note down IC50 recorded for CADGPTLREWIS[Phg]C (disulfide 1-14 (inferred); not fully specified) [SEQ ID NO:12 cyclized, F - (Phenylgly)]
[out] < 500 nM

[in] Give the reported IC50 for this binder. PTLREWISFC (not fully specified; also: further groups not given here) [[drawing CHEM-US-00040] (SEQ ID NO:191)(SEQ ID NO:191)]
[out] < 500 nM

[in] Entry CADGPTLREWIS[Phe(4-NO2)]C (disulfide 1-14 (inferred); not fully specified) [SEQ ID NO:12 cyclized, F - (p-Nitrophe)] needs its IC50 filled in; supply it.
[out] < 500 nM
